The following molecules are shown together with reported % Rmax hCD32a-H131 values.
TEST TARGET: T1, CD32a-H131 (FcgRIIa-H131) (Homo sapiens, UniProt P12318)
T1 sequence (P12318 34-217 limits assumed): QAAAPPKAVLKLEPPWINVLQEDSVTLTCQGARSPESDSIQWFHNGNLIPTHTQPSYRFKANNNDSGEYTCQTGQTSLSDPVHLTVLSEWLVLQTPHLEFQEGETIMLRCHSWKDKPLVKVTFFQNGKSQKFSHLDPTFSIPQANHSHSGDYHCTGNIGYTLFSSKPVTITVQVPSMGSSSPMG
METHOD SUMMARY: SPR, antibody binding to anti-his Fab captured FcgR-his (% Rmax)
CONDITION PARAMETERS: 1 μM antibody

[
  {
    "MOLECULE": "mAb13-IgG2.3 (protein, left off: another chain or arm of the molecule) constant: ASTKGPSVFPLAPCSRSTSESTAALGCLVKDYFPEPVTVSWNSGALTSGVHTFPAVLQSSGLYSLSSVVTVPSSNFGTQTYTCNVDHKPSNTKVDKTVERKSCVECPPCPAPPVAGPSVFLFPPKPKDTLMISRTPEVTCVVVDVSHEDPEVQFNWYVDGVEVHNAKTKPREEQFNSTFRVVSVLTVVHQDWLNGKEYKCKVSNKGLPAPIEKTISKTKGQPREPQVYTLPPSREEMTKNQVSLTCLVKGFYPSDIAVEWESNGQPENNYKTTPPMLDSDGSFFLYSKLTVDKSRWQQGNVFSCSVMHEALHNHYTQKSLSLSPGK",
    "MEASUREMENT UNITS": "%",
    "% Rmax hCD32a-H131": 40
  },
  {
    "MOLECULE": "mAb4-IgG2.5 (protein, left off: another chain or arm of the molecule) constant: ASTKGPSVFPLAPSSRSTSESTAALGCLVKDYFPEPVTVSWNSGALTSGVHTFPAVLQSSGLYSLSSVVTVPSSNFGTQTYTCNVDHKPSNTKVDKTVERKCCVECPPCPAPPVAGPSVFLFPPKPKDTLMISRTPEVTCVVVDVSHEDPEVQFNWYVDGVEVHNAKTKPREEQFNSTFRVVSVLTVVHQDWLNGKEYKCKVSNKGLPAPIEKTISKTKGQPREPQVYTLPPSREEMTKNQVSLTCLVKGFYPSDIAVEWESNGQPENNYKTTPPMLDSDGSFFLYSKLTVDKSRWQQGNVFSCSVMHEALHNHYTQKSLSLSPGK",
    "MEASUREMENT UNITS": "%",
    "% Rmax hCD32a-H131": 46
  },
  {
    "MOLECULE": "mAb6-IgG2.5 (protein, left off: another chain or arm of the molecule) constant: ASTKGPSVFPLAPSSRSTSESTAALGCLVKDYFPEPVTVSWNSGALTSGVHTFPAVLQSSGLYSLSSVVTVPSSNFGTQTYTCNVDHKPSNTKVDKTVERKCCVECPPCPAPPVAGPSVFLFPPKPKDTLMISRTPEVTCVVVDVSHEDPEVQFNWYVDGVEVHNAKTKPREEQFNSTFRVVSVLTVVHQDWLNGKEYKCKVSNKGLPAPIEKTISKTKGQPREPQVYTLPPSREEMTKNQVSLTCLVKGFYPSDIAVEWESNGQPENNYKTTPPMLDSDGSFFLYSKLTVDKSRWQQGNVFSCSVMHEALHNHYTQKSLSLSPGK",
    "MEASUREMENT UNITS": "%",
    "% Rmax hCD32a-H131": 75
  },
  {
    "MOLECULE": "mAb5-IgG2.3 (protein, left off: another chain or arm of the molecule) constant: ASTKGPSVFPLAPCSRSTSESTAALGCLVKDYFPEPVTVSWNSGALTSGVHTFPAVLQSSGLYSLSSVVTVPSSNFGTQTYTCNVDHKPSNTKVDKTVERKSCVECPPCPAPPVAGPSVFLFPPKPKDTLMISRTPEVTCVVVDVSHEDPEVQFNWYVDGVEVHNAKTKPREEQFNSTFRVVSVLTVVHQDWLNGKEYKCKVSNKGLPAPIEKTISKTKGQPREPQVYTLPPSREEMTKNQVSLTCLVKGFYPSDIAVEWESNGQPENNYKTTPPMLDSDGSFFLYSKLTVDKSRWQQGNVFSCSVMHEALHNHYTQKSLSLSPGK",
    "MEASUREMENT UNITS": "%",
    "% Rmax hCD32a-H131": 100
  },
  {
    "MOLECULE": "mAb8-IgG2.3G1-AY-V27 (protein, left off: another chain or arm of the molecule) constant: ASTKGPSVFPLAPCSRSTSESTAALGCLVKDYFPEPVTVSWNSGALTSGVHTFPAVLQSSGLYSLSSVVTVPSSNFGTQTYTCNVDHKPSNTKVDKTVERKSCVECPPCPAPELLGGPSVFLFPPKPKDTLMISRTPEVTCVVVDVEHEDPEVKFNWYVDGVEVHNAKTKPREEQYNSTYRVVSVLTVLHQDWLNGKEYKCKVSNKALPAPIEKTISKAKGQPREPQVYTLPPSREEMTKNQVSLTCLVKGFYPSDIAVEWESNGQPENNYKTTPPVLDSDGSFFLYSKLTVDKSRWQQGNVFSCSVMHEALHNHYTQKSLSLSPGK",
    "MEASUREMENT UNITS": "%",
    "% Rmax hCD32a-H131": 67
  },
  {
    "MOLECULE": "mAb7-IgG2.5G1-AY-V27 (protein, left off: another chain or arm of the molecule) constant: ASTKGPSVFPLAPSSRSTSESTAALGCLVKDYFPEPVTVSWNSGALTSGVHTFPAVLQSSGLYSLSSVVTVPSSNFGTQTYTCNVDHKPSNTKVDKTVERKCCVECPPCPAPELLGGPSVFLFPPKPKDTLMISRTPEVTCVVVDVEHEDPEVKFNWYVDGVEVHNAKTKPREEQYNSTYRVVSVLTVLHQDWLNGKEYKCKVSNKALPAPIEKTISKAKGQPREPQVYTLPPSREEMTKNQVSLTCLVKGFYPSDIAVEWESNGQPENNYKTTPPVLDSDGSFFLYSKLTVDKSRWQQGNVFSCSVMHEALHNHYTQKSLSLSPGK",
    "MEASUREMENT UNITS": "%",
    "% Rmax hCD32a-H131": 74
  },
  {
    "MOLECULE": "mAb11-IgG2.5 (protein, left off: another chain or arm of the molecule) constant: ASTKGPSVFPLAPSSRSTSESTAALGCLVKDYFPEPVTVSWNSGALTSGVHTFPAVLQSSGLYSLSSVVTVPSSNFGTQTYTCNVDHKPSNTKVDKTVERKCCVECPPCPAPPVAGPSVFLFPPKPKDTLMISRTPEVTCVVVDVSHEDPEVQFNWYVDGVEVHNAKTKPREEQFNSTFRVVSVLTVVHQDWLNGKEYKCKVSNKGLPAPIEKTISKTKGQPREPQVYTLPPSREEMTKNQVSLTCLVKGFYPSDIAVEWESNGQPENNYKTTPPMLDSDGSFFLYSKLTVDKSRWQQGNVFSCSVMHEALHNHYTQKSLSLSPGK",
    "MEASUREMENT UNITS": "%",
    "% Rmax hCD32a-H131": 40
  }
]
